Test system: IL-5
EXPERIMENT_NOTES: Cytokine assay, IL-5 release from PBMC
Format: cell-based
CONDITION_INFO: human PBMC, 20 ug/mL PHA, supernatant at 48 hours
Method: The ability of the compounds described herein to inhibit pro-inflammatory cytokines or phsophodiesterases were tested. Frozen human peripheral blood mononucleocytes (PBMC) were thawed and centrifuged. Cryopreservation media was aspirated off of the cell pellet, and the cells were resuspended in fresh culture media (CM) comprising RPMI 1640 and 10% FBS in 96 well plates. Test article was dissolved in DMSO to form a 10 mM sample (DMSO, 100%). […]
MEASUREMENT_TYPE: IC50

                                    compound             value
 0     COc1ccc(Oc2ccc3c(c2)COB3O)cc1OC [D94]   1000 to 4000 nM
 1  N#Cc1ccc(Oc2ccc3c(c2)COB3O)nc1OCC(F)(F)F [D125]         < 1000 nM
 2  N#Cc1ccc(Oc2ccc3c(c2)COB3O)nc1OC1CCCC1 [D100]         < 1000 nM
 3  COC(=O)c1cc(Oc2ccc3c(c2)COB3O)ccc1C#N [D6]  4000 to 10000 nM
 4  COC(=O)c1ccc(Oc2ccc3c(c2)COB3O)nc1 [D65]         < 1000 nM
 5    COc1cc(Oc2ccc3c(c2)COB3O)ccc1C#N [D12]   1000 to 4000 nM
 6  CCCOC(=O)c1ccc(Oc2ccc3c(c2)COB3O)cc1 [D73]   1000 to 4000 nM
 7  COC(=O)c1cc(Oc2ccc3c(c2)COB3O)ccc1C(N)=O [D7]         < 1000 nM
 8  N#Cc1ccc(Oc2ccc3c(c2)COB3O)nc1NCCOCc1ccccc1 [D113]         < 1000 nM
 9  COc1nc(Oc2cc3c(cc2F)B(O)OC3)ccc1C#N [D122]         < 1000 nM
10   N#Cc1ccc(Oc2ccc3c(c2)COB3O)c(Cl)c1 [D4]         < 1000 nM
11  CCOC(=O)c1cc(F)c(Oc2ccc3c(c2)COB3O)cc1Cl [D53]   1000 to 4000 nM
12      N#Cc1ccc(COc2ccc3c(c2)COB3O)cc1 [D1]   1000 to 4000 nM
13  CN1CCN(C(=O)c2ccc(Oc3ccc4c(c3)COB4O)cc2)CC1 [D79]        > 10000 nM

###

System: IFN-γ secretion from PBMCs
EXPERIMENT_NOTES: IFN-γ secretion from PBMCs stimulated with PHA
Format: cell-based, human
CONDITION_INFO: Homo sapiens, PBMC; PBMCs stimulated with PHA; read-out: IFN-γ secretion IC50
pIC50: −log10 of the molar value.
Consider the following molecules and their measured pIC50 readings.
MEASUREMENT_TYPE: pIC50

>>> df
                                  molecule  value
0     N#Cc1ccc(Oc2ccc3c(c2)COB3O)cc1 [C17]   6.57
1  N#Cc1ccc(Oc2ccc3c(c2)COB3O)cc1C#N [C27]   6.66

###

System: phosphodiesterase 4 (PDE4) enzyme derived from human U937 cells
Construct: PDE4 IC50; other: biochemical assay, PDE4 enzyme derived from human U937 cells; other: PDE4 in human U937 cells
EXPERIMENT_NOTES: PDE4 enzyme activity (enzyme derived from human U937 cells)
Format: biochemical
CONDITION_INFO: biochemical assay, PDE4 enzyme derived from human U937 cells; read-out: PDE4 IC50
Consider the following molecules and their measured IC50 readings.
MEASUREMENT_TYPE: IC50 (nM)

In [3]: df
Out[3]:
                                  molecule  value
0  N#Cc1ccc(Oc2ccc3c(c2)COB3O)cc1C#N [C27]     60
1     N#Cc1ccc(Oc2ccc3c(c2)COB3O)cc1 [C17]    490

###

Tested on: IL-10
EXPERIMENT_NOTES: Cytokine assay, IL-10 release from PBMC
Type: cell-based
CONDITION_INFO: human PBMC, 20 ug/mL PHA, supernatant at 48 hours
pIC50: −log10 of the molar value.
MEASUREMENT_TYPE: pIC50

                             chemical_string  target_desc  measurement_type         value
 0          N#Cc1ccc(Oc2ccc3c(c2)B(O)OC3)cc1        IL-10             pIC50        < 5.00
 1  N#Cc1ccc(Oc2ccc3c(c2)COB3O)nc1NCc1ccccc1        IL-10             pIC50  5.40 to 6.00
 2        COC(=O)c1ccc(Oc2ccc3c(c2)COB3O)cc1        IL-10             pIC50        < 5.00
 3  CC(C)S(=O)(=O)c1ccc(Oc2ccc3c(c2)COB3O)cc1        IL-10             pIC50  5.00 to 5.40
 4           COc1ccc(Oc2ccc3c(c2)B(O)OC3)cc1        IL-10             pIC50        < 5.00
 5    N#Cc1ccc(Oc2ccc3c(c2)COB3O)nc1OC1CCCC1        IL-10             pIC50        > 6.00
 6       CCOC(=O)c1ccc(Oc2ccc3c(c2)COB3O)nc1        IL-10             pIC50        > 6.00
 7      CCCOC(=O)c1ccc(Oc2ccc3c(c2)COB3O)nc1        IL-10             pIC50        > 6.00
 8             OCc1ccc(Oc2ccc3c(c2)COB3O)nc1        IL-10             pIC50  5.00 to 5.40
 9        N#Cc1ccc(NCCO)nc1Oc1ccc2c(c1)COB2O        IL-10             pIC50  5.00 to 5.40
10      CC(C)Oc1nc(Oc2ccc3c(c2)COB3O)ccc1C#N        IL-10             pIC50        > 6.00

###

System: IL-10
EXPERIMENT_NOTES: Cytokine assay, IL-10 release from PBMC
Type: cell-based
CONDITION_INFO: human PBMC, 20 ug/mL PHA, supernatant at 48 hours
Structures can show the parent of a compound that is named as a salt.
MEASUREMENT_TYPE: IC50

In [3]: df
Out[3]:
                                   compound       value
0  N#Cc1ccc(Oc2ccc3c(c2)COB3O)nc1N1CCCC1 [D97]   < 1000 nM
1  CC(=O)N1CCN(C(=O)c2ccc(Oc3ccc4c(c3)COB4O)cc2)CC1 [D80]  > 10000 nM
2  CN1CCN(C(=O)COc2cc(C#N)ccc2Oc2ccc3c(c2)COB3O)CC1 [D29, hydrochloride]  > 10000 nM
3  COc1nc(Oc2cc3c(cc2F)B(O)OC3)ccc1C#N [D122]   < 1000 nM
4  N#Cc1ccc(Oc2ccc3c(c2)COB3O)c(CN2CCOCC2)c1 [D32, hydrochloride]   < 1000 nM

###

System: PDE4Cat
Construct: Recombinant human PDE enzymes were expressed in a baculoviral system.
EXPERIMENT_NOTES: PDE4Cat inhibition
Type: biochemical
CONDITION_INFO: standard: Rolipram
pIC50: −log10 of the molar value.
MEASUREMENT_TYPE: pIC50

                  chemical_string   value
0  N#Cc1ccc(Oc2ccc3c(c2)COB3O)cc1  > 6.00

###

Tested on: IL-5
EXPERIMENT_NOTES: Cytokine assay, IL-5 release from PBMC
Type: cell-based
CONDITION_INFO: human PBMC, 20 ug/mL PHA, supernatant at 48 hours
Counter-ions that a name gives are not always drawn.
MEASUREMENT_TYPE: IC50

>>> print(df.to_string())
                                    compound  target_desc  measurement_type             value
 0  N#Cc1cnc(Oc2ccc3c(c2)COB3O)cc1OCCOC1CCCCO1 (stereo not shown) [D118]         IL-5              IC50         < 1000 nM
 1  N#Cc1ccc(Oc2ccc3c(c2)COB3O)nc1N1CCOCC1 [D102]         IL-5              IC50         < 1000 nM
 2    COc1nc(Oc2ccc3c(c2)COB3O)ccc1C#N [D46]         IL-5              IC50         < 1000 nM
 3  CN1CCN(C(=O)COc2cc(C#N)ccc2Oc2ccc3c(c2)COB3O)CC1 [D29, hydrochloride]         IL-5              IC50         < 1000 nM
 4  COc1ccc(C#N)c(Oc2ccc3c(c2)COB3O)n1 [D47]         IL-5              IC50         < 1000 nM
 5  N#Cc1ccc(NCCO)nc1Oc1ccc2c(c1)COB2O [D106]         IL-5              IC50         < 1000 nM
 6  N#Cc1ccc(Oc2ccc3c(c2)COB3O)c(CN2CCOCC2)c1 [D32, hydrochloride]         IL-5              IC50         < 1000 nM
 7  CC(C)(C)OC(=O)COc1cc(C#N)ccc1Oc1ccc2c(c1)COB2O [D30]         IL-5              IC50         < 1000 nM
 8  O=C(NCCO)c1ccc(Oc2ccc3c(c2)COB3O)cc1 [D77]         IL-5              IC50        > 10000 nM
 9  N#Cc1ccc(Oc2ccc3c(c2)COB3O)nc1OCC(F)F [D127]         IL-5              IC50         < 1000 nM
10      Cc1cc(Oc2ccc3c(c2)COB3O)ccc1C#N [D3]         IL-5              IC50         < 1000 nM
11  N#Cc1ccc(Oc2ccc3c(c2)COB3O)nc1OCCO [D99]         IL-5              IC50         < 1000 nM
12     Cc1cc(C#N)ccc1Oc1ccc2c(c1)COB2O [D85]         IL-5              IC50         < 1000 nM
13   O=C(O)c1ccc(Oc2ccc3c(c2)COB3O)cc1 [C38]         IL-5              IC50        > 10000 nM
14  N#Cc1cnc(Oc2ccc3c(c2)COB3O)cc1OCCO [D119]         IL-5              IC50         < 1000 nM
15  N#Cc1ccc(Oc2ccc3c(c2)COB3O)cc1C(=O)O [D8]         IL-5              IC50        > 10000 nM
16  CN(C)CCOC(=O)c1ccc(Oc2ccc3c(c2)COB3O)cc1 [D75]         IL-5              IC50  4000 to 10000 nM
17  CCOC(=O)c1ccc(Oc2ccc3c(c2)COB3O)nc1 [D60]         IL-5              IC50         < 1000 nM
18  N#Cc1ccc(Oc2ccc3c(c2)COB3O)cc1OC1CCCC1 [D37]         IL-5              IC50         < 1000 nM
19  CCOc1cc(Oc2ccc3c(c2)COB3O)ccc1C#N [D124]         IL-5              IC50         < 1000 nM
20     N#Cc1ccc(Oc2ccc3c(c2)COB3O)cc1Cl [D2]         IL-5              IC50         < 1000 nM
21  N#Cc1ccc(Oc2ccc3c(c2)COB3O)nc1NCCO [D132]         IL-5              IC50         < 1000 nM

The reported measurements were obtained from patent US9012431B2.
